molecular target: D59C MelBSt (Salmonella typhimurium, UniProt P30878, D59C); construct: Cys scanning mutagenesis for the full-length MelBSt; His10 (C); made in house; host or cells: E. coli DW2; assay: Trp→dansyl galactoside (D2G) FRET time trace and IC50 of D2G displacement (D59C); format: binding; conditions: IC50 of galactoside displacement on bound D2G, α-NPG, Na+ (100 mM); 10 μM D2G
Sequence (P30878 whole entry D59C): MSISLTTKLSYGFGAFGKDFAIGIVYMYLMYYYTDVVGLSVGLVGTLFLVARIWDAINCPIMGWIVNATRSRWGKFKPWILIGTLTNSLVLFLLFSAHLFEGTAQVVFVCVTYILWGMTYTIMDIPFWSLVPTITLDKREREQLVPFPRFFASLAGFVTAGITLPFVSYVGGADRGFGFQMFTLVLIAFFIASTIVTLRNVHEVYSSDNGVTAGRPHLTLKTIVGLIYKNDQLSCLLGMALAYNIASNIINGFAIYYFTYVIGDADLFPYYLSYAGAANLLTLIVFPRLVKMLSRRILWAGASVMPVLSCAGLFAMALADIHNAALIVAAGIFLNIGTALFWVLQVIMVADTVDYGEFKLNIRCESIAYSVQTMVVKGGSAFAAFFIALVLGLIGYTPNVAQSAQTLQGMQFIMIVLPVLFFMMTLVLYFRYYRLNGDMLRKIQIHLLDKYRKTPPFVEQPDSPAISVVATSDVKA
pIC50: −log10 of the molar value.
observation.type: pIC50

compound="O=[N+]([O-])c1ccc(OC2OC(CO)C(O)C(O)C2O)cc1 [α-NPG, 4-nitrophenyl-α-D-galactopyranoside]" tested_target="D59C MelBSt (Salmonella typhimurium, UniProt P30878, D59C)" observation_type=pIC50 reading=4.67

----------
target: D59C MelBSt (Salmonella typhimurium, UniProt P30878, D59C); construct: Cys scanning mutagenesis for the full-length MelBSt; His10 (C); made in house; host or cells: E. coli DW2; test: biochemical; assay type: binding; conditions: Kd of substrate binding, α-NPG, Na+ (100 mM); ITC 25 °C
observation.type: Kd

molecule="O=[N+]([O-])c1ccc(OC2OC(CO)C(O)C(O)C2O)cc1 [α-NPG, 4-nitrophenyl-α-D-galactopyranoside]" reading="12 µM"

----------
molecular target: D59C MelBSt (Salmonella typhimurium, UniProt P30878, D59C); construct: Cys scanning mutagenesis for the full-length MelBSt; His10 (C); made in house; host or cells: E. coli DW2; experiment: biochemical; type: binding; details: Kd of substrate binding, α-NPG, Apo; ITC 25 °C
pKd: −log10 of the molar value.
observation.type: pKd

compound="O=[N+]([O-])c1ccc(OC2OC(CO)C(O)C(O)C2O)cc1 [α-NPG, 4-nitrophenyl-α-D-galactopyranoside]" observation_type=pKd reading=4.98

----------
target: WT MelBSt (Salmonella typhimurium, UniProt P30878); construct: Cys scanning mutagenesis for the full-length MelBSt; His10 (C); made in house; host or cells: E. coli DW2; assay: biochemical; type: binding; details: IC50 of galactoside displacement on bound D2G, DDMB, Na+ (100 mM); 10 μM D2G; value could be over-estimated
Sequence (P30878 whole entry): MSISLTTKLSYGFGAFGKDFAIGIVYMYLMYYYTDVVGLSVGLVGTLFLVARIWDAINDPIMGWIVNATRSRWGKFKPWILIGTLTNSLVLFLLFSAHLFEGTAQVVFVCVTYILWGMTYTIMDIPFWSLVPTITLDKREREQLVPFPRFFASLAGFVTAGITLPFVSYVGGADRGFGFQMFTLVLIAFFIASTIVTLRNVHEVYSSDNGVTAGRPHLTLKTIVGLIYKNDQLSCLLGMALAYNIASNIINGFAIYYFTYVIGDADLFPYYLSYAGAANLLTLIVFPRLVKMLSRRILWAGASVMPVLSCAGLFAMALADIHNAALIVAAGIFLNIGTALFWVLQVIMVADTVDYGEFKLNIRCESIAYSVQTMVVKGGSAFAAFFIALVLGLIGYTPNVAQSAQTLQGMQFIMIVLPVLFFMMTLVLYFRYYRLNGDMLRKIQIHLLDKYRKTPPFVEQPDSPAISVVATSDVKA
pIC50: −log10 of the molar value.
observation.type: pIC50

molecule="CCCCCCCCCCCCOC1OC(COC2OC(CO)C(O)C(O)C2O)C(O)C(O)C1O [DDMB, dodecyl-β-D-melibioside]" tested_target="WT MelBSt (Salmonella typhimurium, UniProt P30878)" observation_type=pIC50 reading=5.32

----------
biological target: WT MelBSt (Salmonella typhimurium, UniProt P30878); construct: Cys scanning mutagenesis for the full-length MelBSt; His10 (C); made in house; host or cells: E. coli DW2; test: biochemical; assay type: binding; conditions: Kd of substrate binding, α-NPG, Na+ (100 mM); ITC 25 °C
observation.type: Kd (µM)

molecule="O=[N+]([O-])c1ccc(OC2OC(CO)C(O)C(O)C2O)cc1 [α-NPG, 4-nitrophenyl-α-D-galactopyranoside]" tested_target="WT MelBSt (Salmonella typhimurium, UniProt P30878)" observation_type=Kd reading=25.7
